Target: Human GLP-1 receptor (human, UniProt P43220 24-463)
Sequence (P43220 24-463): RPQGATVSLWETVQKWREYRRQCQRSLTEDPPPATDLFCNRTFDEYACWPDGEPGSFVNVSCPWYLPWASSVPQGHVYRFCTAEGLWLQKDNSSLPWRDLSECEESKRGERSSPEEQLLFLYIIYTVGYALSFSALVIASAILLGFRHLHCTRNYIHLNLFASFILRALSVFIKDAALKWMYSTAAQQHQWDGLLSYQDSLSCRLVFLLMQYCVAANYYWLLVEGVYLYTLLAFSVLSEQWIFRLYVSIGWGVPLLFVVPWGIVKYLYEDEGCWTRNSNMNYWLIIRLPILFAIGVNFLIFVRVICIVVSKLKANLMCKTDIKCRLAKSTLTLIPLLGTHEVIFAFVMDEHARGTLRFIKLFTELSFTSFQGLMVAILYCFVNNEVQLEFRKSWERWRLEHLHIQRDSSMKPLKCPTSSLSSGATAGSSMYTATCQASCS
Assay: cell-based or functional assay
Where no end group is shown, it is not given here. [ ]: non-standard residue; d: D form. αMePhe(2-F) = C[C@](N)(Cc1ccccc1F)C(=O)O
observable: cAMP release, % activity with respect to control; test compound 10 µM (%)

binder: HAQGT[αMePhe(2-F)]TSD[Bip(OMe)][Bip(2F)] [Seq. ID. No. 27: HAQGT-(α-Me-2F-Phe)-TSD-Bip(OMe)-Bip(2F)]
measured.number: 99
--
binder: HXQGTXTSDXX (Aib at 2; α-Me-2F-Phe at 6; Bip(OMe) at 10; Bip(Pyr) at 11) [Seq. ID. No. 30: H-Aib-QGT-(α-Me-2F-Phe)-TSD-Bip(OMe)-Bip(Pyr)]
measured.number: 99
--
binder: HSQGTFTSD[Bip(OMe)][Bip(2Me)]-NH2 [Seq. ID. No. 5: HSQGTFTSD-Bip(OMe)-Bip(2Me)]
measured.number: 98
--
binder: HSQGTFTSD[Bip(OMe)][Bip(2CF3)] (not fully specified (C-terminus); printed as HSQGTFTSD-Bip(OMe)-Bip(2CF3)) [Seq. ID. No. 8: HSQGTFTSD-Bip(OMe)-Bip(2CF3)]
measured.number: 98
--
binder: HSQGTXTSDXX (α-Me-2F-Phe at 6; Bip(OMe) at 10; Bip(2CF3) at 11) [Seq. ID. No. 24: HSQGT-(α-Me-2F-Phe)-TSD-Bip(OMe)-Bip(2CF3)]
measured.number: 98
--
binder: HXQGTXTSDXX (Aib at 2; α-Me-2F-Phe at 6; Bip(OMe) at 10; Bip(2F) at 11) [Seq. ID. No. 31: H-Aib-QGT-(α-Me-2F-Phe)-TSD-Bip(OMe)-Bip(2F)]
measured.number: 99
